From: PubChem BioAssay (NCATS)

Give measured caspase-3 activation for each item. Keep answers brief.
Assay: Cellular Toxicity (caspase-3) Mesangial (AID 660);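 also: combined caspase 3 and 7 activity read by Caspase-Glo luminescence; cells exposed to compound for 16 h before the caspase read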
Settings: mesangial cells, normalized: DMSO 0%, 100 µM tamoxifen 100%; at 91.7 µM (top of the series)
# unit: % | format: bare number

Supply reported caspase-3 activation belonging to this compound: CCOC(=O)C(C)C(C)=O (centres undefined)
1.11

Supply reported caspase-3 activation belonging to this compound: CC(=O)c1nccs1
0.103

Supply reported caspase-3 activation belonging to this compound: C1CCCC1
-0.162

Supply reported caspase-3 activation belonging to this compound: CCN(Cc1ccccc1)c1ccccc1
-0.109

Supply reported caspase-3 activation belonging to this compound: CO[Si](CCCNCCC[Si](OC)(OC)OC)(OC)OC
0.876

Supply reported caspase-3 activation belonging to this compound: CCC(C)(C)OC
-0.415

Supply reported caspase-3 activation belonging to this compound: Cc1c(N)cccc1N
-0.29

Supply reported caspase-3 activation belonging to this compound: ClCCl
-1.27

Supply reported caspase-3 activation belonging to this compound: Cc1cc(C)cc(N)c1
-0.679

====

Give measured max response for each item. Keep answers brief.
Target: Retinoic acid receptor RXR-alpha (Homo sapiens) (UniProt P19793)
Sequence (P19793 whole entry, looked up): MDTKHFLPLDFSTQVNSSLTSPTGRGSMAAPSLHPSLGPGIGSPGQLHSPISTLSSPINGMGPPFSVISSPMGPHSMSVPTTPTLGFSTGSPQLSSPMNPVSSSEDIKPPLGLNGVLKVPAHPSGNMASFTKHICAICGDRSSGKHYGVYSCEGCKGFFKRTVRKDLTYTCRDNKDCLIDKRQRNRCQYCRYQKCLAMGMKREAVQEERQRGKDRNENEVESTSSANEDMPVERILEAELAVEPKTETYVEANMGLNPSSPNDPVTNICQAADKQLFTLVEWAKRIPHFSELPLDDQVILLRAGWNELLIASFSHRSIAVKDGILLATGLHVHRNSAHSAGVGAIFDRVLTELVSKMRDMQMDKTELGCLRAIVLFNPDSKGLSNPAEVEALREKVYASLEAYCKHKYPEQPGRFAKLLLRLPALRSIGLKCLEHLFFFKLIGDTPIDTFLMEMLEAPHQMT
Assay: qHTS assay for small molecule antagonists of retinoid X receptor alpha signaling (AID 588546);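 also: cells stimulated with 9-cis-retinoic acid as agonist; % is scaled to controls: 0 for no effect and ±100 for the full control effect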
Conditions: HEK293T RXRa-UAS-bla, beta-lactamase ratio, antagonist mode
Records with an inconclusive call do not appear.
# unit: % | format: bare number

Supply reported max response belonging to this molecule: CC(=O)C1(C)CC2=C(CCCC2(C)C)CC1C (configuration not stated)
25.5

Supply reported max response belonging to this molecule: Nc1nc(CC(=O)O)cs1
-13.3

Supply reported max response belonging to this molecule: O=C(O)CCSSCCC(=O)O
-2.74

Supply reported max response belonging to this molecule: Nc1cccc(N)c1
-3.92

Supply reported max response belonging to this molecule: CCC1CO1 (configuration not stated)
-1.32

Supply reported max response belonging to this molecule: CC(C)(C)c1ccc(OCC2CO2)cc1 (configuration not stated)
11.5

Supply reported max response belonging to this molecule: COc1ccc(OC)cc1
0.277

Supply reported max response belonging to this molecule: CC(=O)c1nccs1
-9.7

Supply reported max response belonging to this molecule: NC(=O)c1ccccc1[N+](=O)[O-]
0.827

Supply reported max response belonging to this molecule: CC(C)(O)CCC(C)(C)O
1.42

Supply reported max response belonging to this molecule: O=C1OC(=O)c2cc([N+](=O)[O-])ccc21
1.57

Supply reported max response belonging to this molecule: Cc1cccc2sc(N)nc12
1.45

Supply reported max response belonging to this molecule: C=C(C)C1CC=C(C)C(OC(C)=O)C1 (configuration not stated)
1.02

Supply reported max response belonging to this molecule: Nc1ccc(Cl)cc1[N+](=O)[O-]
-5.85

Supply reported max response belonging to this molecule: O=C(O)c1c(Cl)cccc1Cl
13.3

Supply reported max response belonging to this molecule: c1ccsc1
-6.87

Supply reported max response belonging to this molecule: CC(=O)OC(C)C
7.02

====

Assay: Cell Viability - LYMP2-021 (AID 974);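 also: compound exposure lasts 24 hours at 37 °C; nearly all actives have a fitted effect of over 55% in size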; also: potency is read from the fitted curve at half-maximal effect
Conditions: LYMP2-021 lymphoblastoid cells viability; series mostly up to 92.2 µM
Records with an inconclusive call do not appear. Calls of active or inactive are those of the source. The call rests on the fitted dose curve; in most records, active means well fitted cell-killing curve with a large enough effect; inconclusive means small, poorly fitted or top-dose-only effect; inactive means flat fitted curve, though single readings scatter.
PROPERTY: Potency

COMPOUND	RESULT
C=C(C)C1CC=C(C)C(OC(C)=O)C1 (stereo unspecified)	inactive
COc1cccc2sc(N)nc12	inactive
CC(=O)C1(C)CC2=C(CCCC2(C)C)CC1C (stereo unspecified)	inactive
CNc1ccc([N+](=O)[O-])cc1	inactive
CCC(C)=O	inactive
COc1ccc(N)c(OC)c1	inactive
O=C(O)c1ccccc1C(=O)O	inactive
O=[N+]([O-])c1ccccc1CCO	inactive

Supply reported Potency belonging to this compound: CCNc1ccccc1
inactive

Supply reported Potency belonging to this compound: NC(=O)NC(N)=O
inactive

Supply reported Potency belonging to this compound: Oc1cccc(Nc2ccccc2)c1
inactive

Supply reported Potency belonging to this compound: Cc1ccc(C(C)(C)C)cc1
inactive

Supply reported Potency belonging to this compound: [O-]/[N+](=N\O)c1ccccc1
inactive

Supply reported Potency belonging to this compound: CCOC(C)(C)C
inactive

Supply reported Potency belonging to this compound: Cc1ccc(CO)cc1
inactive

Supply reported Potency belonging to this compound: CC1=C(/C=C/C(C)=C/C=C/C(C)=C\C=O)C(C)(C)CCC1
50.1 µM (active)

====

Assay: qHTS assay for small molecule antagonists of retinoid X receptor alpha signaling (AID 588546);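 also: cells stimulated with 9-cis-retinoic acid as agonist; % is scaled to controls: 0 for no effect and ±100 for the full control effect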
Details: HEK293T RXRa-UAS-bla, beta-lactamase ratio, antagonist mode; measured here: W530 green channel, cytotoxicity proxy
Records with an inconclusive call do not appear.
Give measured max response for each item. Keep answers brief.
# unit: % | format: bare number

Supply reported max response belonging to this compound: Cc1ccc(S(=O)(=O)NC2CCCCC2)cc1
-7.45

Supply reported max response belonging to this compound: O=CNc1ccccc1
2.83

Supply reported max response belonging to this compound: C=Cc1ccccc1C=C
-3.83

Supply reported max response belonging to this compound: O=[N+]([O-])c1ccc(NCCO)c(OCCO)c1
-6.21

Supply reported max response belonging to this compound: Cc1cc(C(=O)O)ccc1[N+](=O)[O-]
-3.81

Supply reported max response belonging to this compound: CCNc1cc(O)ccc1C
-2.01

Supply reported max response belonging to this compound: COc1ccc(N=[N+]([O-])c2ccc(OC)cc2)cc1
-4.97

Supply reported max response belonging to this compound: CC(C)C(C)C
-13.7

Supply reported max response belonging to this compound: CCC1CO1 (centres undefined)
-10.7

Supply reported max response belonging to this compound: FB(F)F
16.6

Supply reported max response belonging to this compound: O=C(O)c1ccc(CO)o1
-4.49

Supply reported max response belonging to this compound: C=C(C)C1CC=C(C)C(OC(C)=O)C1 (centres undefined)
-6.8

Supply reported max response belonging to this compound: Cc1cscn1
-2.99

Supply reported max response belonging to this compound: Cc1ccc(N(C)C)cc1
-1.89

Supply reported max response belonging to this compound: COC(=O)c1ccccc1
-5.14

Supply reported max response belonging to this compound: O=C1CCC(=O)O1
-8.25

Supply reported max response belonging to this compound: CCOC(C)(C)C
-1.08

Supply reported max response belonging to this compound: Nc1cccc([N+](=O)[O-])c1
-9.54

Supply reported max response belonging to this compound: Oc1c(Cl)ccc(Cl)c1Cl
1.62

Supply reported max response belonging to this compound: CCCCCCO
-3.18

Supply reported max response belonging to this compound: BrC/C=C/CBr
-0.458

Supply reported max response belonging to this compound: O=C(O)CNC(=O)c1ccc([N+](=O)[O-])cc1
-9.96

Supply reported max response belonging to this compound: BrC(Br)C(Br)Br
-6.63

Supply reported max response belonging to this compound: N#CC1(O)CCCCC1
-4.06

Supply reported max response belonging to this compound: NC(=O)c1ccccc1[N+](=O)[O-]
3.46

Supply reported max response belonging to this compound: Cc1ccc2cccnc2c1
6

Supply reported max response belonging to this compound: CC(=O)Nc1ccc(C)cc1
-3.72

Supply reported max response belonging to this compound: O=[N+]([O-])c1cccc(Cl)c1
-3.93

Supply reported max response belonging to this compound: CCN(Cc1ccccc1)c1ccccc1
-8.88

Supply reported max response belonging to this compound: CC(C)CCOC(=O)/C=C/c1ccccc1
5.75

Supply reported max response belonging to this compound: CCCCC(CC)COCC1CO1 (centres undefined)
2.35

Supply reported max response belonging to this compound: O=C1OC(=O)c2cc([N+](=O)[O-])ccc21
10.4

Supply reported max response belonging to this compound: CCCC(C)CO (centres undefined)
5

Supply reported max response belonging to this compound: O=C(Cl)c1c(Cl)cccc1Cl
-4.7

Supply reported max response belonging to this compound: CC(O)CC(C)O (centres undefined)
14.5

Supply reported max response belonging to this compound: Nc1ccccc1[N+](=O)[O-]
1.56

Supply reported max response belonging to this compound: Nc1nc2ccccc2[nH]1
-22

Supply reported max response belonging to this compound: CC(=O)c1ccccc1[N+](=O)[O-]
5.46

Supply reported max response belonging to this compound: Nc1nc(-c2ccccc2)cs1
7.15

====

Experiment: MultiTox-Fluor Cytotoxicity Assay - LYMP1-002 - Dead Cells (AID 960);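 also: cells exposed to compound for 16 h at 37 °C; 0% = DMSO and 100% = tetraoctylammonium bromide; nearly all actives have a fitted effect of over 60% in size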
Details: LYMP1-002 lymphoblastoid cells, dead-cell protease fluorescence; series mostly up to 46.1 µM
Excerpt: NIH Chemical Genomics Center [NCGC] NIH Molecular Libraries Screening Centers Network [MLSCN] National Institutes of Environmental Health Sciences [NIEHS] National Toxicology Program [NTP] We have developed a 1536-well cell-based assay for quantitative high throughput screening (qHTS) against a number of cell lines to determine in vitro cytotoxicity of small molecules. […] 8. Detection; dead-cell fluorescence (Ex/Em=485/520); EnVision plate reader […]
Results filed as inconclusive are left out. The source made the active and inactive calls. Calls follow the shape of the dose curve; as a rule, active = well fitted cell-killing curve with a large enough effect; inconclusive = small, poorly fitted or top-dose-only effect, or effect the other way; inactive = no such curve, though single readings can be large or run the other way.
PROPERTY: outcome

MOLECULE	outcome
O=C(O)c1ccc(C(=O)O)cc1	inactive
CCCCC(CC)COC(=O)CCCCC(=O)OCC(CC)CCCC (configuration not stated)	inactive
CC(C)(O)C(=O)O	inactive
COC(=O)CC#N	inactive
Nc1c(Cl)cc(Cl)cc1Cl	inactive

Supply reported outcome belonging to this molecule: CCCCC(=O)N(C)C
inactive

Supply reported outcome belonging to this molecule: CCCCCCCCC
inactive

Supply reported outcome belonging to this molecule: Cc1cc(C)c(N)cc1C
inactive

Supply reported outcome belonging to this molecule: Cc1ccc(Br)cc1
inactive

Supply reported outcome belonging to this molecule: Nc1cccc(N)c1
inactive
